Attribution: the supplement of paper PMC11246515

assay: total protein half-life in vivo (active degradation + dilution); higher = more stable protein; details: E. coli NCM3722 delta-clpP delta-lon delta-hslV; growth: N-lim chemostat; doubling time 6 h
Measured quantity: total protein half-life in vivo (h)
Report as a plain number; the unit h is understood.

Name the recorded total protein half-life in vivo for MLVWLAEHLVKYYSGFNVFSYLTFRAIVSLLTALFISLWMGPRMIAHLQKLSFGQVVRNDGPESHFSKRGTPTMGGIMILTAIVISVLLWAYPSNPYVWCVLVVLVGYGVIGFVDDYRKVVRKDTKGLIARWKYFWMSVIALGVAFALYLAGKDTPATQLVVPFFKDVMPQLGLFYILLAYFVIVGTGNAVNLTDGLDGLAIMPTVFVAGGFALVAWATGNMNFASYLHIPYLRHAGELVIVCTAIVGAGLGFLWFNTYPAQVFMGDVGSLALGGALGIIAVLLRQEFLLVIMGGVFVVETLSVILQVGSFKLRGQRIFRMAPIHHHYELKGWPEPRVIVRFWIISLMLVLIGLATLKVR [P0A6W3] .
6.14

----------
assay: total protein half-life in vivo (active degradation + dilution); higher = more stable protein; conditions: wild type E. coli NCM3722; growth: N-lim chemostat; doubling time 12 h
Measured quantity: total protein half-life in vivo

Worked cases, total protein half-life in vivo given:
MTIKNKMLLGALLLVTSAAWAAPATAGSTNTSGISKYELSSFIADFKHFKPGDTVPEMYRTDEYNIKQWQLRNLPAPDAGTHWTYMGGAYVLISDTDGKIIKAYDGEIFYHR	11.5 h
MAQRVQLTATVSENQLGQRLDQALAEMFPDYSRSRIKEWILDQRVLVNGKVCDKPKEKVLGGEQVAINAEIEEEARFEPQDIPLDIVYEDEDIIIINKPRDLVVHPGAGNPDGTVLNALLHYYPPIADVPRAGIVHRLDKDTTGLMVVAKTVPAQTRLVESLQRREITREYEAVAIGHMTAGGTVDEPISRHPTKRTHMAVHPMGKPAVTHYRIMEHFRVHTRLRLRLETGRTHQIRVHMAHITHPLVGDPVYGGRPRPPKGASEAFISTLRKFDRQALHATMLRLYHPISGIEMEWHAPIPQDMVELIEVMRADFEEHKDEVDWL	8.47 h
MQKDALNNVHITDEQVLMTPEQLKAAFPLSLQQEAQIADSRKSISDIIAGRDPRLLVVCGPCSIHDPETALEYARRFKALAAEVSDSLYLVMRVYFEKPRTTVGWKGLINDPHMDGSFDVEAGLQIARKLLLELVNMGLPLATEALDPNSPQYLGDLFSWSAIGARTTESQTHREMASGLSMPVGFKNGTDGSLATAINAMRAAAQPHRFVGINQAGQVALLQTQGNPDGHVILRGGKAPNYSPADVAQCEKEMEQAGLRPSLMVDCSHGNSNKDYRRQPAVAESVVAQIKDGNRSIIGLMIESNIHEGNQSSEQPRSEMKYGVSVTDACISWEMTDALLREIHQDLNGQLTARVA	1.81 h
MLRFSANLSMLFGEYDFLARFEKAAQCGFRGVEFMFPYDYDIEELKHVLASNKLEHTLHNLPAGDWAAGERGIACIPGREEEFRDGVAAAIRYARALGNKKINCLVGKTPAGFSSEQIHATLVENLRYAANMLMKEDILLLIEPINHFDIPGFHLTGTRQALKLIDDVGCCNLKIQYDIYHMQRMEGELTNTMTQWADKIGHLQIADNPHRGEPGTGEINYDYLFKVIENSDYNGWVGCEYKPQTTTEAGLRWMDPYR	6.46 h
MQYNPLGKTDLRVSRLCLGCMTFGEPDRGNHAWTLPEESSRPIIKRALEGGINFFDTANSYSDGSSEEIVGRALRDFARREDVVVATKVFHRVGDLPEGLSRAQILRSIDDSLRRLGMDYVDILQIHRWDYNTPIEETLEALNDVVKAGKARYIGASSMHASQFAQALELQKQHGWAQFVSMQDHYNLIYREEEREMLPLCYQEGVAVIPWSPLARGRLTRPWGETTARLVSDEVGKNLYKESDENDAQIAERLTGVSEELGATRAQVALAWLLSKPGIAAPIIGTSREEQLDELLNAVDITLKPEQIAELETPYKPHPVVGFK	6.51 h

Please give the measured total protein half-life in vivo for this sequence: `MKKLILIAIMASGLVACAQSTAPQEDSRLKEAYSACINTAQGSPEKIEACQSVLNVLKKEKQHQQFADQESVRVLDYQQCLRATQTGNDQAVKADCDKVWQEIRSNNK`
> 16 h
